# Tested Target: Faecalibacterium prausnitzii GUS (FpGUS) (Faecalibacterium duncaniae)
# Sequence (C7H4D2 1-608): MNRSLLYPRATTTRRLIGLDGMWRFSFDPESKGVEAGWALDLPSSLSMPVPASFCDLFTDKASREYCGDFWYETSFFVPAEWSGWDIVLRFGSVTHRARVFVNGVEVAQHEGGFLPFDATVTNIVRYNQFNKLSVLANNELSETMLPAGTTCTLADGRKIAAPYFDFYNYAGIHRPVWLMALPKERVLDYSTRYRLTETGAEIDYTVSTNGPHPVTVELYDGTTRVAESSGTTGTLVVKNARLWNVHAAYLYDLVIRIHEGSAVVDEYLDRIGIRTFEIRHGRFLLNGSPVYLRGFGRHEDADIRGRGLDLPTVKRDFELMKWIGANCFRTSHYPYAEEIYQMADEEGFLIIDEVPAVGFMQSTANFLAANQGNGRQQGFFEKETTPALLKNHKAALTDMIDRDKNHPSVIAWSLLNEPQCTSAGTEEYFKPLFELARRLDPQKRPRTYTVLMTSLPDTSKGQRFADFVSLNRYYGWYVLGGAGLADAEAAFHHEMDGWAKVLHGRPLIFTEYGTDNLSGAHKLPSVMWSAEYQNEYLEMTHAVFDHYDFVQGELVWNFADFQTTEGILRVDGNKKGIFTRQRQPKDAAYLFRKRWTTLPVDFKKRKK
# Protocol: In vitro inhibition assay (pNPG hydrolysis)
# Assay type: biochemical
# Condition Label: Inhibitor 1 (IC50, nM) pH 7.5, pH 7.5; pNPG 900 µM
Reported Property: IC50

CCOc1ccc(NC(=S)N(CCO)Cc2cc3cc(C)cc(C)c3[nH]c2=O)cc1 ... > 100000 nM

###

# Tested Target: Bacteroides fragilis GUS (BfGUS) (Bacteroides fragilis, UniProt Q5LIC7)
# Sequence (Q5LIC7 whole entry): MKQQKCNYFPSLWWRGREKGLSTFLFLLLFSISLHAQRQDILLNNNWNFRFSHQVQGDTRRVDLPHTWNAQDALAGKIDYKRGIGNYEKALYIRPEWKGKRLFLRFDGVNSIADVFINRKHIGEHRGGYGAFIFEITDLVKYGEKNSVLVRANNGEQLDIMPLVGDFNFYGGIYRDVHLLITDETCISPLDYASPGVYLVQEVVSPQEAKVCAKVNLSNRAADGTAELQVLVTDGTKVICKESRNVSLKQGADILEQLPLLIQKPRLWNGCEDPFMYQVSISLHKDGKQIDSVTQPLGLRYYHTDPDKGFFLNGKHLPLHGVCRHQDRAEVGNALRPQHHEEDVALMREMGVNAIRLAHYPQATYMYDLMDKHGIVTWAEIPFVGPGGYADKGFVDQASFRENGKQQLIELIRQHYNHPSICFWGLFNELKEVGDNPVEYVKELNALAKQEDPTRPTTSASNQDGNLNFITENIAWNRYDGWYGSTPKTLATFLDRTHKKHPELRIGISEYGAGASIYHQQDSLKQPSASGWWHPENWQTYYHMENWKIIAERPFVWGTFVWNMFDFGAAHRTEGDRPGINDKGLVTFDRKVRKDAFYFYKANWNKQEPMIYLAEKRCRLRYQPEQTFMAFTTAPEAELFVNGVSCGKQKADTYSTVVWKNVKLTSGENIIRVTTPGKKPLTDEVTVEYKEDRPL
# Protocol: In vitro inhibition assay (pNPG hydrolysis)
# Assay type: biochemical
# Condition Label: read-out: UNC10201652 (IC50, nM) pH 6.5
Reported Property: IC50

C1CCc2c(c(N3CCOCC3)nc3sc4c(N5CCNCC5)nnnc4c23)C1 ... > 100000 nM

###

# Tested Target: Bacteroides fragilis GUS (BfGUS) (Bacteroides fragilis, UniProt Q5LIC7)
# Protocol: In vitro inhibition assay (pNPG hydrolysis)
# Assay type: biochemical
# Condition Label: read-out: Inhibitor 1 (IC50, nM) pH 7.5; pH 7.5; pNPG 900 µM
Reported Property: IC50

CCOc1ccc(NC(=S)N(CCO)Cc2cc3cc(C)cc(C)c3[nH]c2=O)cc1 ... > 100000 nM

###

# Tested Target: Faecalibacterium prausnitzii GUS (FpGUS) (Faecalibacterium duncaniae, UniProt C7H4D2)
# Protocol: In vitro inhibition assay (pNPG hydrolysis)
# Type: biochemical
# Condition Label: pH 6.5; pNPG 900 µM; read-out: UNC10201652 (IC50, nM) pH 6.5
Reported Property: IC50

C1CCc2c(c(N3CCOCC3)nc3sc4c(N5CCNCC5)nnnc4c23)C1 [UNC10201652] ... > 100000 nM

###

# Tested Target: Bacteroides uniformis GUS (BuGUS) (Bacteroides uniformis, UniProt A0A078SUX9)
# Sequence (A0A078SUX9 32-886): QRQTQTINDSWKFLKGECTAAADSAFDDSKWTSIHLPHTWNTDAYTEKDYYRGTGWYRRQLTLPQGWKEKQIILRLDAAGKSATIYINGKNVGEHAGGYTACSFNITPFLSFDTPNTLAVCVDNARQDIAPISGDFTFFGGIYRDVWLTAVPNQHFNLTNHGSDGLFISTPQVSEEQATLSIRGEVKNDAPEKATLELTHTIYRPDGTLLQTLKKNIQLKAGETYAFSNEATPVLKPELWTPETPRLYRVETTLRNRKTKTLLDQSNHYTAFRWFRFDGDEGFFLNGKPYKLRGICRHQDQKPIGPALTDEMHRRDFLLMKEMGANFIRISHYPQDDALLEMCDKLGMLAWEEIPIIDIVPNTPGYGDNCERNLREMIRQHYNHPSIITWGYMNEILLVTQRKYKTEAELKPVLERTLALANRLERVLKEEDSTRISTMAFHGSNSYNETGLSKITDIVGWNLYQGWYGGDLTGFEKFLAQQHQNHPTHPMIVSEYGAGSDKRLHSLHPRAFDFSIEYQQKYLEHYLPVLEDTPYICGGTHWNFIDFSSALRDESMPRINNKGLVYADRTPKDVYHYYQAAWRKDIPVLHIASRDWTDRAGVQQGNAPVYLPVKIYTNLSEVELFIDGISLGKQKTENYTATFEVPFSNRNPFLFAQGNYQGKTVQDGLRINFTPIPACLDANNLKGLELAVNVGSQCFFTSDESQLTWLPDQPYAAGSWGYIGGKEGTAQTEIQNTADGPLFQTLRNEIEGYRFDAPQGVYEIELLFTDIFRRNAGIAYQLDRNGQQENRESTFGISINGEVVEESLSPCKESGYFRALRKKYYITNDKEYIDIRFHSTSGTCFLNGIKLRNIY
# Protocol: In vitro inhibition assay (pNPG hydrolysis)
# Format: biochemical
Reported Property: IC50

CCOc1ccc(NC(=S)N(CCO)Cc2cc3cc(C)cc(C)c3[nH]c2=O)cc1 [Inhibitor 1] ... > 100 µM
